FYI, the data here is from ChEMBL document CHEMBL4425121.

target: Fibroblast growth factor receptor 1 (Homo sapiens); assay: Inhibition of recombinant human FGFR1 using poly (Glu,Tyr)4:1 as substrate incubated for 60 mins by ELISA
Sequence (P11362 whole entry): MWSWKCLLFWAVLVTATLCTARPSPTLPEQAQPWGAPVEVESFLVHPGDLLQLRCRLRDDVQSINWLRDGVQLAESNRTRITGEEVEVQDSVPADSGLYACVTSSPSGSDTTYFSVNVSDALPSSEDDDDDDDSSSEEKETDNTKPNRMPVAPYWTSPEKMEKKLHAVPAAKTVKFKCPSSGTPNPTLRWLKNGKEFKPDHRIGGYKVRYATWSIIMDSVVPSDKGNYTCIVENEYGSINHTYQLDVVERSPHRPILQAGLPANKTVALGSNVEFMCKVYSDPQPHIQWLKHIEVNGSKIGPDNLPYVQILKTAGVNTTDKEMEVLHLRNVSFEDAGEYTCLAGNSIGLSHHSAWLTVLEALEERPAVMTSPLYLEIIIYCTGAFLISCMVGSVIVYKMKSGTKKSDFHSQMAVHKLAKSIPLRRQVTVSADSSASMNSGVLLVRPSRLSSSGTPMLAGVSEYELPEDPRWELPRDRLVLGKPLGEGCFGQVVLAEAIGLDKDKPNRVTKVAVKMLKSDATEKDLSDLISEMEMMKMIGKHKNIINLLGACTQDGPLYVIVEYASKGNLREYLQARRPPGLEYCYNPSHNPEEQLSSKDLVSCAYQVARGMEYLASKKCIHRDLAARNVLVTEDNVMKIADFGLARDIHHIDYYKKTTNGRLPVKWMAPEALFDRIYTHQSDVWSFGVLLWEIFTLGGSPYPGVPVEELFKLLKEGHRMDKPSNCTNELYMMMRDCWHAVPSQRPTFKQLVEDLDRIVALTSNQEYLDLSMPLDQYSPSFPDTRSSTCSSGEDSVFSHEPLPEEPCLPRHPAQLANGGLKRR
value.kind: pIC50
Answer as the number alone; pIC50 is minus log10 of concentration in mol/L.

Look up and state reported pIC50 for COc1cc(OC)c(Cl)c(-c2ccc3c(NC(=O)c4ccc(N5CCNCC5)cc4)n[nH]c3n2)c1Cl 7.93

Look up and state reported pIC50 for COc1cc(OC)c(Cl)c(-c2ccc3c(NC(=O)c4ccc(N5CCN(C)CC5)c(Cl)c4)n[nH]c3n2)c1Cl 7.84

Look up and state reported pIC50 for COc1cc(OC)c(Cl)c(-c2ccc3c(NC(=O)c4ccc(N)cc4)n[nH]c3n2)c1Cl 8.06

Look up and state reported pIC50 for COc1cc(OC)c(Cl)c(-c2ccc3c(NC(=O)c4ccc(C5CCN(C)CC5)cc4)n[nH]c3n2)c1Cl 8.16
